Values from paper PMC11952846

target: GST-ARV1-N70 (Homo sapiens, UniProt Q9H2C2); construct: Expresses amino-terminal 70 amino acids of ARV1; made in house; host or cells: E. coli BL21 (pGEX-4T1); experiment: Lipid overlay far western, truncation; format: binding; details: compared to ARV1-N98
Sequence (Q9H2C2 1-70): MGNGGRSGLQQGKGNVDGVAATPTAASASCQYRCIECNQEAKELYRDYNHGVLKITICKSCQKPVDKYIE
Measured attribute: change of lipid-protein interaction

CCCCCC(=O)O[C@H](COC(=O)CCCCCNC(=O)CCCC[C@@H]1SC[C@@H]2NC(=O)N[C@@H]21)COP(=O)(O)O[C@H]1[C@H](O)[C@@H](OP(=O)(O)O)[C@H](O)[C@@H](O)[C@H]1O [PI(5)P, reference compound]    reduced interactions
CCCCCCCCCCCCCCCCCC(=O)OC[C@H](COP(=O)(O)OC[C@H](N)C(=O)O)OC(=O)CCCCCCCCCCCCCCCCC    reduced interactions
CCCCCC(=O)O[C@H](COC(=O)CCCCCNC(=O)CCCC[C@@H]1SC[C@@H]2NC(=O)N[C@@H]21)COP(=O)(O)O[C@@H]1[C@H](O)[C@H](OP(=O)(O)O)[C@@H](O)[C@H](O)[C@H]1O [reference compound]    reduced interactions
